// reported IC50 per item
# subjectOfTest: G810R mutant RET kinase (Homo sapiens, UniProt P07949, G810R)
# Sequence (P07949 29-1114 G810R): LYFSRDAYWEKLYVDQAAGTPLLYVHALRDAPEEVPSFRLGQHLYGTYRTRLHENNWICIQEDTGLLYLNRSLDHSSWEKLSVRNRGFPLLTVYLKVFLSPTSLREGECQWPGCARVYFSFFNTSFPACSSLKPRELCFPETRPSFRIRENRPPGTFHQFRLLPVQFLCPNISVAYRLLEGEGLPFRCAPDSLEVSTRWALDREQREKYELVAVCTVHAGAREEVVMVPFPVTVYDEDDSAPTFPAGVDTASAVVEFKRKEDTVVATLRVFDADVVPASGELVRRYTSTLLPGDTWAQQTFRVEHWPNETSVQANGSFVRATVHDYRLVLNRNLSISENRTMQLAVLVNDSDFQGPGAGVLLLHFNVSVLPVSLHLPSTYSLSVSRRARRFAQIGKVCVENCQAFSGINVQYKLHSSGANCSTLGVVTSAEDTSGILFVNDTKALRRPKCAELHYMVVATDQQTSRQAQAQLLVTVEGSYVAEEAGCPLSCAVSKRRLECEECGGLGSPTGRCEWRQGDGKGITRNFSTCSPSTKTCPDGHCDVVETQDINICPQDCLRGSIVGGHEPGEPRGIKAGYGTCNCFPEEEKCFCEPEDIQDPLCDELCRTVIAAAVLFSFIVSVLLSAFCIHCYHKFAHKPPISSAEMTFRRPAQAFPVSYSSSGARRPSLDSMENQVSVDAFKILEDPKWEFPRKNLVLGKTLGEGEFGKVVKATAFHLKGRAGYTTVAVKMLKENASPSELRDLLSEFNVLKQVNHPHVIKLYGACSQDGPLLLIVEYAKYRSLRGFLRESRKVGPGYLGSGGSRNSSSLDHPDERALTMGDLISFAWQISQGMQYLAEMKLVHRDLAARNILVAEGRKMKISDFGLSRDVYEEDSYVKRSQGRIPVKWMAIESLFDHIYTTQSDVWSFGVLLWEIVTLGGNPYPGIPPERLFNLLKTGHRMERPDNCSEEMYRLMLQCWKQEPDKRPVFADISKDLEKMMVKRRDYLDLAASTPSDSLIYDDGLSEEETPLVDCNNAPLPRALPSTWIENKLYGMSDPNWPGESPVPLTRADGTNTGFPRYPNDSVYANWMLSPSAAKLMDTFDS
# experimentalProtocol: biochemical
parameterMeasured: IC50 (µM)

>>> df
                                   compound  uom  reportedvalue
0  CC(C)n1c2c(c3c(N)ncnc31)-c1noc(C3CC3)c1C(=O)N(CC1CC1)C2   µM          0.157
1  CC(C)n1c2c(c3c(N)ncnc31)-c1c(Cl)c3ccc(C(=O)NC4CC4)cc3n1CCC2   µM           0.76
2  CC(C)n1c2c(c3c(N)ncnc31)-c1cc3ccc(C#N)cc3n1C(=O)NC2   µM          0.118
3  Nc1ncnc2c1c1c(n2C(CF)CF)CC[C@@H](O)c2c-1noc2C1CC1 (single isomer, unassigned)   µM          0.028

###

# subjectOfTest: HEK-293 cells expressing a G810R mutant RET Kif5b-RET fusion protein (Homo sapiens, UniProt P07949, G810R)
# Construct: KIF5B (N-terminal portion incl. coiled-coil); expressed in transfected cells; host or cells: HEK-293; the other entry of the earlier key: KIF5B (P33176, Kinesin-1 heavy chain)
# experimentalProtocol: RET G810R Mutant Cell Assay (phospho-RET Tyr1062)
# Type: cell-based
# testConditions: HEK-293 Kif5b-RET G810R, 1 hour incubation, phospho-RET normalized to GAPDH
pIC50: −log10 of the molar value.
// reported pIC50 per item

molecule	pIC50
CC(C)n1c2c(c3c(N)ncnc31)-c1noc(C3CC3)c1C(=O)N(C)C2 [Example 20]	6.80
CC(C)n1c2c(c3c(N)ncnc31)-c1cc3ccc(C#N)cc3n1C(=O)NC2 [Example 76]	6.07
CC(=O)Nc1ccc2cc3n(c2c1)CCCc1c-3c2c(N)ncnc2n1C(C)C [Example 139]	7.31
CC(C)n1c2c(c3c(N)ncnc31)-c1cc3ccc(C(=O)NC4CC4)cc3n1C(=O)NC2 [Example 72]	4.79
CCN1Cc2c(c3c(N)ncnc3n2C(C)C)-c2noc(C3CC3)c2C1=O [Example 1]	6.75
Cc1cc2n(n1)C(=O)NCc1c-2c2c(N)ncnc2n1C(C)C [Example 105, 2,2,2-trifluoroacetate]	4.81
CC(C)n1c2c(c3c(N)ncnc31)-c1ccc(Cl)cc1C(=O)NC2 [Example 45]	6.09
CC(C)n1c2c(c3c(N)ncnc31)-c1cc3ccc(C(=O)NC4CC4)cc3n1CCC2 [Example 87]	7.05
Cc1ccc2c(c1)cc1n2C(=O)NCc2c-1c1c(N)ncnc1n2C(C)C [Example 81]	7.12
CC(C)n1c2c(c3c(N)ncnc31)-c1ccc(C3CC3)cc1C(=O)NC2 [Example 47]	5.71
Nc1ncnc2c1c1c(n2-c2ccccc2)CCC(O)c2c-1noc2C1CC1 (stereo not shown) [Example 118, 2,2,2-trifluoroacetate]	6.69
C[C@H](n1c2c(c3c(N)ncnc31)-c1noc(C3CC3)c1[C@@H](O)CC2)C(F)(F)F (single isomer, unassigned) [Example 146, 2,2,2-trifluoroacetate]	7.01
COC(=O)c1ccc2cc3n(c2c1)C(=O)NCc1c-3c2c(N)ncnc2n1C(C)C [Example 70]	6.22
CC(C)n1c2c(c3c(N)ncnc31)-c1noc(C3CC3)c1CN(S(C)(=O)=O)C2 [Example 35, 2,2,2-trifluoroacetate]	6.08
CC(=O)N1Cc2c(noc2C2CC2)-c2c(n(C(C)C)c3ncnc(N)c23)C1 [Example 36, 2,2,2-trifluoroacetate]	6.84
CC(C)n1c2c(c3c(N)ncnc31)-c1noc(C3CC3)c1C(=O)N(Cc1ccccc1)C2 [Example 7]	6.18

###

# subjectOfTest: RET kinase Wild Type (Homo sapiens)
# experimentalProtocol: biochemical
pIC50: −log10 of the molar value.
// reported pIC50 per item
parameterMeasured: pIC50

compound	parameterMeasured	reportedValue
CC(C)n1c2c(c3c(N)ncnc31)-c1noc(C3CC3)c1C(=O)N(CCc1cnn(C)c1)C2 [Example 16]	pIC50	6.69
Nc1ncnc2c1c1c(n2C(CF)CF)CCC(O)c2c-1noc2C1CC1 (stereo not drawn) [Example 122]	pIC50	7.85
CC(C)n1c2c(c3c(N)ncnc31)-c1noc(C3CC3)c1S(=O)(=O)N(C)C2 [Example 22]	pIC50	7.51
Nc1ncnc2c1c1c(n2C(CF)CF)CC[C@H](O)c2c-1noc2C1CC1 (single isomer, unassigned) [Example 126]	pIC50	8.22
CC(C)n1c2c(c3c(N)ncnc31)-c1c(Cl)c3ccc(C(=O)NC4CC4)cc3n1CCC2 [Example 102]	pIC50	6.89
CC(C)n1c2c(c3c(N)ncnc31)-c1cc3ccc(C(=O)Nc4ccn(-c5ccccc5)n4)cc3n1CCC2 [Example 100]	pIC50	6.63
CC(C)n1c2c(c3c(N)ncnc31)-c1cc3ccc(C(=O)Nc4ccn(CC(=O)N(C)C)n4)cc3n1CCC2 [Example 99]	pIC50	6.06
CC1(n2c3c(c4c(N)ncnc42)-c2noc(C4CC4)c2[C@H](O)CC3)CC1 [Example 150]	pIC50	7.92
Cc1cc2n(n1)C(=O)NCc1c-2c2c(N)ncnc2n1C(C)C [Example 105, 2,2,2-trifluoroacetate]	pIC50	6.19
CC(C)n1c2c(c3c(N)ncnc31)-c1cc3ccccc3n1C(=O)CC2 [Example 68]	pIC50	6.41
Nc1ncnc2c1c1c(n2[C@@H]2C[C@@H](O)[C@@H](O)C2)CCC(O)c2c-1noc2C1CC1 (stereo partly drawn) [Example 130]	pIC50	7.92
C[C@H](n1c2c(c3c(N)ncnc31)-c1noc(C3CC3)c1[C@@H](O)CC2)C(F)(F)F (single isomer, unassigned) [Example 146, 2,2,2-trifluoroacetate]	pIC50	7.59
Nc1ncnc2c1c1c(n2-c2ccccc2)CCC(O)c2c-1noc2C1CC1 (stereo not drawn) [Example 118, 2,2,2-trifluoroacetate]	pIC50	6.88
CC(C)n1c2c(c3c(N)ncnc31)-c1noc(C3CC3)c1CN(S(C)(=O)=O)C2 [Example 35, 2,2,2-trifluoroacetate]	pIC50	7.33
CC1Cc2c(c3c(N)ncnc3n2C(C)C)-c2noc(C3CC3)c2C1=O (stereo not drawn) [Example 60]	pIC50	7.68

###

# subjectOfTest: RET kinase Wild Type (Homo sapiens)
# experimentalProtocol: biochemical
// reported IC50 per item
parameterMeasured: IC50

In [3]: df
Out[3]:
                                   molecule  reportedvalue
0  Nc1ncnc2[nH]c3c(c12)-c1noc(C2CC2)c1C(=O)CC3        3440 nM
1  CC(C)n1c2c(c3c(N)ncnc31)-c1noc(C3CC3)c1C(=O)N(CCN1CCS(=O)(=O)CC1)C2         103 nM
2  CC(C)n1c2c(c3c(N)ncnc31)-c1cc3ccc(C(=O)Nc4ccn(CCN5CCOCC5)n4)cc3n1CCC2          62 nM
3  CC(C)n1c2c(c3c(N)ncnc31)-c1noc(C3CC3)c1S(=O)(=O)NC2 [Example 21, 2,2,2-trifluoroacetate]           9 nM
4  CC(C)n1c2c(c3c(N)ncnc31)-c1cc3c(F)cccc3n1C(=O)NC2          63 nM
5  CC(C)n1c2c(c3c(N)ncnc31)-c1noc(C3CC3)c1C(=O)OC2          25 nM
6  CC(C)n1c2c(c3c(N)ncnc31)-c1noc(C3CC3)c1C(=O)N(C1CCN(Cc3ccccc3)C1)C2 (centres unmarked)          49 nM
7  CC(C)n1c2c(c3c(N)ncnc31)-c1noc(C3CC3)c1C(O)CC2 (racemic)           8 nM

###

# subjectOfTest: RET kinase Wild Type (Homo sapiens, UniProt P07949)
# Sequence (P07949 29-1114): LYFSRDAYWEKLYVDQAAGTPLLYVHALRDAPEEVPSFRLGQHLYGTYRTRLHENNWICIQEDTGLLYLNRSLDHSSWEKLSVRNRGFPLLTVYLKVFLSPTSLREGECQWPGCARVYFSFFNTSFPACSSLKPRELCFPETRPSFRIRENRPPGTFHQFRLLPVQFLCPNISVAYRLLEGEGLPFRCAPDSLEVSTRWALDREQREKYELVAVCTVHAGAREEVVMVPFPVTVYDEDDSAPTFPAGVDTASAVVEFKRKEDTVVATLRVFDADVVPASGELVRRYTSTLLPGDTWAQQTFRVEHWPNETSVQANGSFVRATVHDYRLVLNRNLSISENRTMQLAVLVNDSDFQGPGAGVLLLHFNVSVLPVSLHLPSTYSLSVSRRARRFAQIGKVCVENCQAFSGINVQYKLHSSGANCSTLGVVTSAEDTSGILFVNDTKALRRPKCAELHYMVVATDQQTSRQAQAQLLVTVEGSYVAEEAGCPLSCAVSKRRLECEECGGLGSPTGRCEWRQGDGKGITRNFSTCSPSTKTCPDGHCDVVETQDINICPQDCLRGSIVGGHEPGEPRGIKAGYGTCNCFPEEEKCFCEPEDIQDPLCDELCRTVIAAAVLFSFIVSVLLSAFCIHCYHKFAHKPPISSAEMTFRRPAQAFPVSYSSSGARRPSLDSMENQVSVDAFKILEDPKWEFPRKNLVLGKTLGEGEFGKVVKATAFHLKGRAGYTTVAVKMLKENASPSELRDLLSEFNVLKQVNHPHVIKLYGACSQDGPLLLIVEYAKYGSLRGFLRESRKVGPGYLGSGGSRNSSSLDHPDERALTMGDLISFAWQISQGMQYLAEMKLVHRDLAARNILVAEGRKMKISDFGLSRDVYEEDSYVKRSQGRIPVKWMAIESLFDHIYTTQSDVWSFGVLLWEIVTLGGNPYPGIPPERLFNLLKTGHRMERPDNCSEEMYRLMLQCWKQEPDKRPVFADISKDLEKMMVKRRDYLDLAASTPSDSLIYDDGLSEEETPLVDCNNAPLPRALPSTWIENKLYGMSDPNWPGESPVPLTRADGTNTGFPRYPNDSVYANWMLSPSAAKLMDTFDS
parameterMeasured: IC50 (nM)

>>> print(df.to_string())
                                   molecule                             subjectoftest  parametermeasured  reportedvalue
0  Nc1ncnc2c1c1c(n2C2CCNC2)CCC(O)c2c-1noc2C1CC1 (stereo not shown) [Example 132]  RET kinase Wild Type (Homo sapiens, UniProt P07949)               IC50           1710
1  C[C@H](n1c2c(c3c(N)ncnc31)-c1noc(C3CC3)c1[C@H](O)CC2)C(F)(F)F (single isomer, unassigned)  RET kinase Wild Type (Homo sapiens, UniProt P07949)               IC50             20
2  Nc1ncnc2c1c1c(n2C2CCNC2)CCC(O)c2c-1noc2C1CC1 (stereo not shown) [Example 133]  RET kinase Wild Type (Homo sapiens, UniProt P07949)               IC50           2640
3  COC(=O)[C@H]1C[C@H](n2c3c(c4c(N)ncnc42)-c2noc(C4CC4)c2C(=O)CC3)C1  RET kinase Wild Type (Homo sapiens, UniProt P07949)               IC50            124
